Test system: PPARg:RXRa 270nM:90nM, anti-RXR (NR concentration 270 nM, RXRa partner concentration 90 nM)
Assay: PBM binding z-score (relative to random genomic background probes); higher = stronger binding; sequences stand for … in GC…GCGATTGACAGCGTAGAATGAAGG
Class membership depends on PBM binding z-score alone; the intervals are bottom = under 1, middle = from 1 up to 4, top = 4 and over

| RESIDUE STRING | GROUP LABEL |
| --- | --- |
| GCTTGTAGATCAATGTTAAGAAAGACTAAGCTAA | bottom |
| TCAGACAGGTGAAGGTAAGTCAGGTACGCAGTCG | middle |
| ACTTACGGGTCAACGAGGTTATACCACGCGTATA | top |
| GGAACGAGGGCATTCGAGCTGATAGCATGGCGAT | bottom |
| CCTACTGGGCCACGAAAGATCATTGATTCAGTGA | middle |
| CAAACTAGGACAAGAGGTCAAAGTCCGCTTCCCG | top |
| TCTGCTAGGTCAACGATGGTGAGCTAATCTGCTA | middle |
| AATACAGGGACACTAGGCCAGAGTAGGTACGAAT | bottom |
| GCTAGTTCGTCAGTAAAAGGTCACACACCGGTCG | middle |
| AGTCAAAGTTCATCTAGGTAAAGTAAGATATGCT | top |
| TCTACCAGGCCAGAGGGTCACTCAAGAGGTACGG | middle |
| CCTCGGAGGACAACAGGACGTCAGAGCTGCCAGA | bottom |
| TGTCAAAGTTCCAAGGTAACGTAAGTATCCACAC | middle |
| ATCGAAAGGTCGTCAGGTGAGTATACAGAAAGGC | middle |
| ACAGACAGGTGAGTGCAGGTAACTCAGCTGGACG | bottom |
| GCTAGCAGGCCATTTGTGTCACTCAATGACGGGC | bottom |
| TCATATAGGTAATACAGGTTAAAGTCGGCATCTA | middle |
| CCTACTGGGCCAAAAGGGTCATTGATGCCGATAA | top |
| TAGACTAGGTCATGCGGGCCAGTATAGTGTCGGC | top |
| CTCGAAAGGTCGTGCTCGGGTGAGTATACCAAAC | middle |
| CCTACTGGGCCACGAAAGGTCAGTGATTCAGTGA | middle |
| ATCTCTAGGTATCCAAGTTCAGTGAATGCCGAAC | bottom |
| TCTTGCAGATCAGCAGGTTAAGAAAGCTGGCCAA | bottom |
| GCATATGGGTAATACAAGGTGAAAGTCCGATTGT | middle |
| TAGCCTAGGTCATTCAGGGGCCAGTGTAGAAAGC | middle |
| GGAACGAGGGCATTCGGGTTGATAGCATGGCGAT | bottom |
| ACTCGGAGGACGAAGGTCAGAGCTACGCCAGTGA | middle |
| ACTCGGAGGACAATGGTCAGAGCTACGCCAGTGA | bottom |
| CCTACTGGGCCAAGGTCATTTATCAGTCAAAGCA | top |
| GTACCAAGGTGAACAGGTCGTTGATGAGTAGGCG | middle |
| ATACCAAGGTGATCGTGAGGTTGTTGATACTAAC | bottom |
| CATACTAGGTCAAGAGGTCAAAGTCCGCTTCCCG | top |
| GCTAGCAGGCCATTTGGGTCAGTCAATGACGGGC | bottom |
| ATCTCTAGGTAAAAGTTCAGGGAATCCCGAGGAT | top |
| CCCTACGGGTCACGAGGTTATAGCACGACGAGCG | top |
| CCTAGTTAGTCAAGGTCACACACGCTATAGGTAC | middle |
| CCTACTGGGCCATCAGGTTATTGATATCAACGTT | middle |
| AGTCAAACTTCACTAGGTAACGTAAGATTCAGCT | bottom |
| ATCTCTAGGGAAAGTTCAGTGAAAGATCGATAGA | middle |
| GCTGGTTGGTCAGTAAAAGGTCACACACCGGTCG | top |
| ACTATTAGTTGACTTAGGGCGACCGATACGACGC | bottom |
| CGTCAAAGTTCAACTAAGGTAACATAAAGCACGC | top |
| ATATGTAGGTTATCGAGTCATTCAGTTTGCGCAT | top |
